Values were extracted from ChEMBL document CHEMBL1135064.

biological target: ATP-dependent translocase ABCB1 (Mus musculus, UniProt P06795); assay: Inhibitory activity against P-glycoprotein (Pgp) using accumulation assay for Pgp expressing EMT6/AR1.0 cells.
Sequence (P06795 whole entry): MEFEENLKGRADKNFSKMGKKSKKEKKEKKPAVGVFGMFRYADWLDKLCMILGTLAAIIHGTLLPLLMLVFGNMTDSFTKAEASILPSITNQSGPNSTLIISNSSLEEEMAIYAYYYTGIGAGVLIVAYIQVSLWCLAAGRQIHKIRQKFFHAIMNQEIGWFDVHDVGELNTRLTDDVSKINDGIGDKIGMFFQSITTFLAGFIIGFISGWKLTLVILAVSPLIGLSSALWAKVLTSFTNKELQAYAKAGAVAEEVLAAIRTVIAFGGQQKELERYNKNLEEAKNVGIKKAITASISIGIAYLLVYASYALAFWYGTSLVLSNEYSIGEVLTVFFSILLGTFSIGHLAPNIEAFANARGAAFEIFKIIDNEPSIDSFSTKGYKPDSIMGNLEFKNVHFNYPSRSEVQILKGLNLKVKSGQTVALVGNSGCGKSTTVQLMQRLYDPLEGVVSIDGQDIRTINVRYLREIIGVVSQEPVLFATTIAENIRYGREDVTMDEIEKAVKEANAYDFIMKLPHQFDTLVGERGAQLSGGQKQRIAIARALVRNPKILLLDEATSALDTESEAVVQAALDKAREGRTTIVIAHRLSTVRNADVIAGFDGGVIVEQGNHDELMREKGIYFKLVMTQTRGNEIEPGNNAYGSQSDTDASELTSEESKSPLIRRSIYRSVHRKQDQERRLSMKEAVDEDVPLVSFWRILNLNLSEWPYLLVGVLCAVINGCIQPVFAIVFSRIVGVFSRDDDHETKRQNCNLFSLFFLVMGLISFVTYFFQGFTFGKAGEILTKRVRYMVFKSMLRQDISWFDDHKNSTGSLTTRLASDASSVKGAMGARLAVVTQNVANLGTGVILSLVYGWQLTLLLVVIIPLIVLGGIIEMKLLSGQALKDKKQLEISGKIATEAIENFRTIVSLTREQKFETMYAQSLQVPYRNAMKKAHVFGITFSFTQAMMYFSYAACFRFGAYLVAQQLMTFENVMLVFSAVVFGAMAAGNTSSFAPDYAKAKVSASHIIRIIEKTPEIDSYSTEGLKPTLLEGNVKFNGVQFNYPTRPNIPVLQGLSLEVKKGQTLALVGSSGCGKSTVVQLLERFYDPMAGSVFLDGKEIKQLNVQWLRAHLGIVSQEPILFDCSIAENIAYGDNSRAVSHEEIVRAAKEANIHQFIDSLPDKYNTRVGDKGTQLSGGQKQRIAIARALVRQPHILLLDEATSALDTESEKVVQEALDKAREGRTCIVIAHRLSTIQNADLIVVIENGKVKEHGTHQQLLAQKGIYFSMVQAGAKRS
Field: class. Source value: IC50. Ranges: band A = under 1000 nM, band B = from 1000 nM up to 2000 nM, band C = 2000 nM and over

In [3]: df
Out[3]:
                                        mol                       experimental_system   group
0  COc1cc2c(cc1OC)CN(CCn1c(-c3ccc(N(C)C)cc3)nc3ccccc3c1=O)CC2  ATP-dependent translocase ABCB1 (Mus musculus, UniProt P06795)  band B
1  COc1cc2c(cc1OC)CN(CCn1c(-c3ccccc3)nc3ccccc3c1=O)CC2  ATP-dependent translocase ABCB1 (Mus musculus, UniProt P06795)  band C
2  COc1cc2c(cc1OC)CN(CCn1c(-c3ccc(N(C)C)cc3)nc3cccc(Cl)c3c1=O)CC2  ATP-dependent translocase ABCB1 (Mus musculus, UniProt P06795)  band A
3  COc1ccc(CCN(C)CCn2c(-c3ccc(N(C)C)cc3)nc3ccccc3c2=O)cc1OC  ATP-dependent translocase ABCB1 (Mus musculus, UniProt P06795)  band B
4  COc1cc(C(=O)N2CCN(CCn3c(-c4ccc(N(C)C)cc4)nc4ccccc4c3=O)CC2)cc(OC)c1OC  ATP-dependent translocase ABCB1 (Mus musculus, UniProt P06795)  band C
5  COc1cc2c(cc1OC)CN(CCn1c(-c3ccc(N(C)C)cc3)nc3ccc(Cl)cc3c1=O)CC2  ATP-dependent translocase ABCB1 (Mus musculus, UniProt P06795)  band B
6  COc1cc2c(cc1OC)CN(CCn1c(-c3ccc(N(C)C)cc3)nc3c(C)cccc3c1=O)CC2  ATP-dependent translocase ABCB1 (Mus musculus, UniProt P06795)  band A

---

target: UniProtKB P06795; assay: Inhibitory activity against P-glycoprotein (Pgp) using accumulation assay for Pgp expressing EMT6/AR1.0 cells.
pIC50: −log10 of the molar value.
The entries below come with measured pIC50 values attached.
Reported property: pIC50

>>> df
                                   compound  test_value
0  COc1cc2c(cc1OC)CN(CCn1c(-c3ccc(N(C)C)cc3)nc3cc(N)ccc3c1=O)CC2        5.14
1  CN(C)c1ccc(-c2nc3ccccc3c(=O)n2CCc2ccncc2)cc1        5.00
2  COc1cc2c(cc1OC)CN(CCn1c(-c3ccc(N(C)C)cc3)nc3c(Cl)cccc3c1=O)CC2        5.97
3  COc1cc2c(cc1OC)CN(CCn1c(-c3ccc4c(c3)OCO4)nc3ccccc3c1=O)CC2        5.43
4  COc1cc(C(=O)C(=O)N2CCCC[C@H]2C(=O)OC(CCCc2cccnc2)CCCc2cccnc2)cc(OC)c1OC [BIRICODAR]        5.30
5  CCCCCCn1c(-c2ccc(N(C)C)cc2)nc2ccccc2c1=O        4.40
6  COc1cc2c(cc1OC)CN(CCn1c(-c3ccc4ccccc4c3)nc3ccccc3c1=O)CC2        6.07
7  CN(C)c1ccc(-c2nc3ccccc3c(=O)n2CCN2CCN(c3ncccn3)CC2)cc1        6.41
8  CN(C)c1ccc(-c2nc3ccccc3c(=O)n2CC2CCCCC2)cc1        4.85

---

The entries below come with measured pIC50 values attached.
molecular target: ATP-dependent translocase ABCB1 (Mus musculus, UniProt P06795); test: Inhibitory activity against P-glycoprotein (Pgp) using accumulation assay for Pgp expressing EMT6/AR1.0 cells.
pIC50: −log10 of the molar value.
Reported property: pIC50

>>> print(df.to_string())
                                         mol                       experimental_system  test_value
 0  COc1cc2c(cc1OC)CN(CCn1c(-c3ccc(N(C)C)cc3)nc3cc(Cl)ccc3c1=O)CC2  ATP-dependent translocase ABCB1 (Mus musculus, UniProt P06795)        5.87
 1  CCN(CC)c1ccc(-c2nc3ccccc3c(=O)n2CCN2CCc3cc(OC)c(OC)cc3C2)cc1  ATP-dependent translocase ABCB1 (Mus musculus, UniProt P06795)        5.89
 2  CN(C)c1ccc(-c2nc3ccccc3c(=O)n2CCN2CCN(Cc3ccccc3)CC2)cc1  ATP-dependent translocase ABCB1 (Mus musculus, UniProt P06795)        5.68
 3  COc1cc2c(cc1OC)CN(CCn1c(-c3ccc(N(C)C)cc3)nc3ccc([N+](=O)[O-])cc3c1=O)CC2  ATP-dependent translocase ABCB1 (Mus musculus, UniProt P06795)        6.22
 4  CN(C)c1ccc(-c2nc3ccccc3c(=O)n2CCN2CCc3ccccc3C2)cc1  ATP-dependent translocase ABCB1 (Mus musculus, UniProt P06795)        5.30
 5  CN(C)c1ccc(-c2nc3ccccc3c(=O)n2Cc2ccccc2)cc1  ATP-dependent translocase ABCB1 (Mus musculus, UniProt P06795)        4.39
 6  COc1cc2c(cc1OC)CN(CCn1c(-c3cccc(N(C)C)c3)nc3ccccc3c1=O)CC2  ATP-dependent translocase ABCB1 (Mus musculus, UniProt P06795)        5.80
 7  COc1cc2c(cc1OC)CN(CCn1c(-c3ccc(N(C)C)cc3)nc3cc([N+](=O)[O-])ccc3c1=O)CC2  ATP-dependent translocase ABCB1 (Mus musculus, UniProt P06795)        5.96
 8  COc1cc2c(cc1OC)CN(CCn1c(-c3ccc(C(C)C)cc3)nc3ccccc3c1=O)CC2  ATP-dependent translocase ABCB1 (Mus musculus, UniProt P06795)        6.00
 9  CCCc1cccc(-c2nc3ccccc3c(=O)n2CCN2CCc3cc(OC)c(OC)cc3C2)c1  ATP-dependent translocase ABCB1 (Mus musculus, UniProt P06795)        6.10
10  COc1cc2c(cc1OC)CN(CCn1c(-c3ccc(N(C)C)cc3)nc3c(OC)cccc3c1=O)CC2  ATP-dependent translocase ABCB1 (Mus musculus, UniProt P06795)        7.30

---

target: Multidrug resistance-associated protein 1 (Homo sapiens, UniProt P33527); assay: Inhibition of multidrug resistance associated protein type 1 (MRP1) assayed by an accumulation assay in COR.L23/R cells
Sequence (P33527 whole entry): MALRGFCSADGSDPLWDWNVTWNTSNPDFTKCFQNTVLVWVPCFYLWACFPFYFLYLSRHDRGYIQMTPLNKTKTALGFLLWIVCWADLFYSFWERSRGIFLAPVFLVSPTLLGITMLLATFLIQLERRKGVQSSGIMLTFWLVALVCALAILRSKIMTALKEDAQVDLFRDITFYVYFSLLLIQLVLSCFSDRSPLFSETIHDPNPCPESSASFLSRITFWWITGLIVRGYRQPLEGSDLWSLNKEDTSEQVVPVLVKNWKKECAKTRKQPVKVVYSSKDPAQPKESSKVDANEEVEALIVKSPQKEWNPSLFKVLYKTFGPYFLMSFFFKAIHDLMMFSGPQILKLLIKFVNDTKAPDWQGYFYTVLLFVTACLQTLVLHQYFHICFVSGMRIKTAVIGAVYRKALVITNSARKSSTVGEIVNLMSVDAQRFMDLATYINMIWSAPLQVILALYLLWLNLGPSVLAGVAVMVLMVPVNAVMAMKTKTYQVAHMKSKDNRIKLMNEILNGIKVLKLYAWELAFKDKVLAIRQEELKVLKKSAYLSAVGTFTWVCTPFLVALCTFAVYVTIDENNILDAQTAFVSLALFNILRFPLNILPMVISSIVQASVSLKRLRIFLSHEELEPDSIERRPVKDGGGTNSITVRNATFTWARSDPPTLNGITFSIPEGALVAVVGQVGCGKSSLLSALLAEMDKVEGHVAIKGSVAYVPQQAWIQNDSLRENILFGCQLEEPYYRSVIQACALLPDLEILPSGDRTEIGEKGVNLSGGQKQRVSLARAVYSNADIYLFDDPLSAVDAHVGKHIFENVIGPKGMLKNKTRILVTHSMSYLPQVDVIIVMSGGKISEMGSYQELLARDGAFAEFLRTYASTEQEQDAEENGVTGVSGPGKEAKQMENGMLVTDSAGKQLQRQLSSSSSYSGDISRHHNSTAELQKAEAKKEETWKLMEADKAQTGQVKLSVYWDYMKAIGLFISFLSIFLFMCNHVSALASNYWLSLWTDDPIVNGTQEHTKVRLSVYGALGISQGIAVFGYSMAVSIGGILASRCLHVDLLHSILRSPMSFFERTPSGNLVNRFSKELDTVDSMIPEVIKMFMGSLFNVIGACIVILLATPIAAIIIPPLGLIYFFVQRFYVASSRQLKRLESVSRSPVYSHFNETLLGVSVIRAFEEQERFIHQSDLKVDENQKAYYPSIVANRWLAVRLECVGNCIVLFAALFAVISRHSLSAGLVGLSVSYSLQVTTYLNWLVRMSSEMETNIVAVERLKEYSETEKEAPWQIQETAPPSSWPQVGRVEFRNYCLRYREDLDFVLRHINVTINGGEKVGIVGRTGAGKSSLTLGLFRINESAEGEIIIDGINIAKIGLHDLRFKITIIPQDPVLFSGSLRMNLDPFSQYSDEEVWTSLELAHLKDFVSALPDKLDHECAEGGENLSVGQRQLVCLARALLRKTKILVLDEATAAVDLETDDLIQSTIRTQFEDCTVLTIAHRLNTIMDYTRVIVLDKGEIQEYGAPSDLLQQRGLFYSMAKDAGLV
pIC50: −log10 of the molar value.
Reported property: pIC50

>>> df
                                    compound  reported_property  relational_operator  test_value
 0  COc1cc(C(=O)N2CCN(CCn3c(-c4ccc(N(C)C)cc4)nc4ccccc4c3=O)CC2)cc(OC)c1OC              pIC50                    =        5.14
 1  CN(C)c1ccc(-c2nc3ccccc3c(=O)n2CCN2CCc3ccccc3C2)cc1              pIC50                    =        5.49
 2  CCN(CC)c1ccc(-c2nc3ccccc3c(=O)n2CCN2CCc3cc(OC)c(OC)cc3C2)cc1              pIC50                    <        5.00
 3  CN(C)c1ccc(-c2nc3ccccc3c(=O)n2CCN2CCN(Cc3ccccc3)CC2)cc1              pIC50                    =        4.41
 4  CN(C)c1ccc(-c2nc3ccccc3c(=O)n2CCN2CCN(c3ncccn3)CC2)cc1              pIC50                    =        4.44
 5  COc1cc2c(cc1OC)CN(CCn1c(-c3ccc(N(C)C)cc3)nc3c(C)cccc3c1=O)CC2              pIC50                    =        5.20
 6  COc1cc2c(cc1OC)CN(CCn1c(-c3ccc(N(C)C)cc3)nc3c(OC)cccc3c1=O)CC2              pIC50                    =        4.82
 7  COc1cc2c(cc1OC)CN(CCn1c(-c3ccc(N(C)C)cc3)nc3cc(N)ccc3c1=O)CC2              pIC50                    =        4.73
 8  COc1cc2c(cc1OC)CN(CCn1c(-c3ccc(N(C)C)cc3)nc3ccccc3c1=O)CC2              pIC50                    =        5.98
 9  COc1cc2c(cc1OC)CN(CCn1c(-c3ccc(N(C)C)cc3)nc3ccc(N)cc3c1=O)CC2              pIC50                    =        5.12
10  COc1cc2c(cc1OC)CN(CCn1c(-c3ccccc3O)nc3ccccc3c1=O)CC2              pIC50                    =        4.02
11  COc1cc2c(cc1OC)CN(CCn1c(-c3ccc(N(C)C)cc3)nc3cccc(Cl)c3c1=O)CC2              pIC50                    =        5.42
12  COc1cc2c(cc1OC)CN(CCn1c(-c3ccc(N(C)C)cc3)nc3c(Cl)cccc3c1=O)CC2              pIC50                    =        5.54
13  COc1ccc(CCN(C)CCn2c(-c3ccc(N(C)C)cc3)nc3ccccc3c2=O)cc1OC              pIC50                    =        4.43
14  COc1cc2c(cc1OC)CN(CCn1c(-c3ccccc3)nc3ccccc3c1=O)CC2              pIC50                    =        5.55
15  COc1cc2c(cc1OC)CN(CCn1c(-c3ccc(N(C)C)cc3)nc3cc(Cl)ccc3c1=O)CC2              pIC50                    =        5.88
16  CCCc1cccc(-c2nc3ccccc3c(=O)n2CCN2CCc3cc(OC)c(OC)cc3C2)c1              pIC50                    =        6.00
17  COc1cc2c(cc1OC)CN(CCn1c(-c3ccc(C(C)C)cc3)nc3ccccc3c1=O)CC2              pIC50                    =        6.30
18  COc1cc2c(cc1OC)CN(CCn1c(-c3ccc(-c4ccccc4)cc3)nc3ccccc3c1=O)CC2              pIC50                    =        6.00
19  COc1cc2c(cc1OC)CN(CCn1c(-c3cccc(N(C)C)c3)nc3ccccc3c1=O)CC2              pIC50                    =        5.35
20  COc1cc2c(cc1OC)CN(CCn1c(-c3ccc(N(C)C)cc3)nc3cc([N+](=O)[O-])ccc3c1=O)CC2              pIC50                    =        5.69
21  COc1cc2c(cc1OC)CN(CCn1c(-c3ccc4c(c3)OCO4)nc3ccccc3c1=O)CC2              pIC50                    =        5.82
22  CN(C)c1ccc(-c2nc3ccccc3c(=O)n2CC2CCCCC2)cc1              pIC50                    =        5.00
23  COc1cc2c(cc1OC)CN(CCn1c(-c3ccc(N(C)C)cc3)nc3ccc([N+](=O)[O-])cc3c1=O)CC2              pIC50                    =        6.40
24  COc1cc2c(cc1OC)CN(CCn1c(-c3ccc4ccccc4c3)nc3ccccc3c1=O)CC2              pIC50                    =        6.05
25  COc1cc(C(=O)C(=O)N2CCCC[C@H]2C(=O)OC(CCCc2cccnc2)CCCc2cccnc2)cc(OC)c1OC [BIRICODAR]              pIC50                    =        5.29
26  CCCCCCn1c(-c2ccc(N(C)C)cc2)nc2ccccc2c1=O              pIC50                    <        4.00
27  COc1cc2c(cc1OC)CN(CCn1c(-c3ccc(N(C)C)cc3)nc3ccc(Cl)cc3c1=O)CC2              pIC50                    =        5.81
28  CN(C)c1ccc(-c2nc3ccccc3c(=O)n2CCc2ccncc2)cc1              pIC50                    =        5.48
29  CN(C)c1ccc(-c2nc3ccccc3c(=O)n2Cc2ccccc2)cc1              pIC50                    <        4.00
